System: P-gp (human MDR1)
ASSAY_OVERVIEW: Equilibrium distribution study (in vitro Kp,brain / Kp,uu,brain) across MDCKII-MDR1 cells, BSA apical, brain homogenate basolateral, Uni-L and Bi-L
CONDITIONS: dog, pH 7.5, Recovery Bi-L, mass balance Eq. 7, Bi-L, 29 h; % printed
If the reported recovery at 29 h, 1 μM equals or exceeds 70%, assign criterion met. If not, assign criterion not met.

{"COMPOUND": "CN/C(=N/CCSCc1nc[nH]c1C)NC#N", "CLASS": "criterion met"}
{"COMPOUND": "Clc1ccc2c(c1)N=C(N1CCNCC1)c1ccccc1N2", "CLASS": "criterion not met"}
{"COMPOUND": "O=C(c1ccc(F)cc1)C1CCN(CCn2c(=S)[nH]c3ccccc3c2=O)CC1", "CLASS": "criterion not met"}
{"COMPOUND": "NCC1(CC(=O)O)CCCCC1", "CLASS": "criterion met"}
{"COMPOUND": "CN(C)CCC=C1c2ccccc2COc2ccccc21 [Doxepin, doxepin]", "CLASS": "criterion not met"}
{"COMPOUND": "CC(C)NCC(O)COc1cccc2ccccc12 (stereo not shown)", "CLASS": "criterion not met"}
{"COMPOUND": "CN(C)CCCC1(c2ccc(F)cc2)OCc2cc(C#N)ccc21 (stereo not shown)", "CLASS": "criterion not met"}
{"COMPOUND": "CCN(CC)CCNC(=O)c1cc(Cl)c(N)cc1OC [Metoclopramide, metoclopramide]", "CLASS": "criterion not met"}

* * *

Tested on: P-gp (human MDR1)
ASSAY_OVERVIEW: in vitro
CONDITIONS: dog, MDCK-MDR1, pH 7.5, in vitro determined Kp,brain Bi-L

{"COMPOUND": "Cc1cc(=O)n(-c2ccccc2)n1C [Antipyrine, antipyrine]", "Kp at 29 h, 1 μM": 1.2}

* * *

Test system: P-gp (human MDR1)
ASSAY_OVERVIEW: in vitro
CONDITIONS: dog, pH 7.5, Recovery Bi-L

{"MOLECULE": "Cc1cc(=O)n(-c2ccccc2)n1C [Antipyrine, antipyrine]", "recovery at 29 h, 1 μM, %": 77}

* * *

System: P-gp (human MDR1)
ASSAY_OVERVIEW: in vitro
CONDITIONS: dog, MDCK-MDR1, pH 7.4
The following compounds are shown together with reported efflux ratio at 60 min, 0.5 μM values.

{"COMPOUND": "Cc1cc(=O)n(-c2ccccc2)n1C [Antipyrine, antipyrine]", "SYSTEM_UNDER_TEST": "P-gp (human MDR1)", "efflux ratio at 60 min, 0.5 μM": 1.2}
{"COMPOUND": "Clc1ccc2c(c1)N=C(N1CCNCC1)c1ccccc1N2", "SYSTEM_UNDER_TEST": "P-gp (human MDR1)", "efflux ratio at 60 min, 0.5 μM": 2.1}
{"COMPOUND": "NCC1(CC(=O)O)CCCCC1", "SYSTEM_UNDER_TEST": "P-gp (human MDR1)", "efflux ratio at 60 min, 0.5 μM": 0.5}
{"COMPOUND": "CN(C)CCCC1(c2ccc(F)cc2)OCc2cc(C#N)ccc21 (centres unmarked)", "SYSTEM_UNDER_TEST": "P-gp (human MDR1)", "efflux ratio at 60 min, 0.5 μM": 1.7}
{"COMPOUND": "CN(C)CCC=C1c2ccccc2COc2ccccc21 [Doxepin, doxepin]", "SYSTEM_UNDER_TEST": "P-gp (human MDR1)", "efflux ratio at 60 min, 0.5 μM": 1.1}

* * *

System: P-gp (human MDR1)
ASSAY_OVERVIEW: Equilibrium distribution study (in vitro Kp,brain / Kp,uu,brain) across MDCKII-MDR1 cells, BSA apical, brain homogenate basolateral, Uni-L and Bi-L
CONDITIONS: dog, MDCK-MDR1, pH 7.5

{"SMILES_CODE": "COc1ccc2c(c1)c(CC(=O)O)c(C)n2C(=O)c1ccc(Cl)cc1", "Kp uu at 29 h, 1 μM": "≥ 1"}

* * *

ASSAY_OVERVIEW: Fraction unbound in 20-fold diluted brain homogenate, equilibrium dialysis
CONDITIONS: calculated with Eq. 2 from fu measured in 100% matrices (ref 20), dilution factor 20
Hi! Could you tag entries with Predicted fu (%) Brain (D = 20) below 70% as satisfied, and those at or above as not satisfied? Much appreciated.

{"MOLECULE": "COc1ccc2c(c1)c(CC(=O)O)c(C)n2C(=O)c1ccc(Cl)cc1 [Indomethacin, indomethacin]", "CLASS": "satisfied"}
{"MOLECULE": "CN(C)CCC=C1c2ccccc2COc2ccccc21 [Doxepin, doxepin]", "CLASS": "satisfied"}
{"MOLECULE": "CN(C)CCCC1(c2ccc(F)cc2)OCc2cc(C#N)ccc21 (centres unmarked) [Citalopram, citalopram]", "CLASS": "satisfied"}
{"MOLECULE": "CCN(CC)CCNC(=O)c1cc(Cl)c(N)cc1OC [Metoclopramide, metoclopramide]", "CLASS": "not satisfied"}
{"MOLECULE": "CN/C(=N/CCSCc1nc[nH]c1C)NC#N [Cimetidine, cimetidine]", "CLASS": "not satisfied"}
{"MOLECULE": "CNCCC(Oc1ccc(C(F)(F)F)cc1)c1ccccc1 (centres unmarked) [Fluoxetine, fluoxetine]", "CLASS": "satisfied"}
{"MOLECULE": "NCC1(CC(=O)O)CCCCC1 [Gabapentin, gabapentin]", "CLASS": "not satisfied"}
{"MOLECULE": "Clc1ccc2c(c1)N=C(N1CCNCC1)c1ccccc1N2 [N-desmethylclozapine]", "CLASS": "satisfied"}
{"MOLECULE": "CC(C)NCC(O)COc1cccc2ccccc12 (centres unmarked) [Propranolol, propranolol]", "CLASS": "satisfied"}
{"MOLECULE": "O=C(c1ccc(F)cc1)C1CCN(CCn2c(=S)[nH]c3ccccc3c2=O)CC1 [Altanserin]", "CLASS": "satisfied"}

* * *

Collected Kp at 29 h, 1 μM values appear next to each entry.
Tested on: P-gp (human MDR1)
ASSAY_OVERVIEW: Equilibrium distribution study (in vitro Kp,brain / Kp,uu,brain) across MDCKII-MDR1 cells, BSA apical, brain homogenate basolateral, Uni-L and Bi-L
CONDITIONS: dog, MDCK-MDR1, pH 7.5, in vitro determined Kp,brain Uni-L, Uni-L (compound loaded apically in BSA), 29 h, 1 μM, brain homogenate/BSA ratio
MEASUREMENT_KIND: Kp at 29 h, 1 μM

{"COMPOUND": "CN/C(=N/CCSCc1nc[nH]c1C)NC#N", "MEAS_VALUE": 0.19}
{"COMPOUND": "Clc1ccc2c(c1)N=C(N1CCNCC1)c1ccccc1N2", "MEAS_VALUE": 4.2}
{"COMPOUND": "CCN(CC)CCNC(=O)c1cc(Cl)c(N)cc1OC [Metoclopramide, metoclopramide]", "MEAS_VALUE": 1}
{"COMPOUND": "CN(C)CCC=C1c2ccccc2COc2ccccc21 [Doxepin, doxepin]", "MEAS_VALUE": 2.2}
{"COMPOUND": "CC(C)NCC(O)COc1cccc2ccccc12 (stereo not drawn)", "MEAS_VALUE": 2.2}
{"COMPOUND": "CN(C)CCCC1(c2ccc(F)cc2)OCc2cc(C#N)ccc21 (stereo not drawn)", "MEAS_VALUE": 1.5}
{"COMPOUND": "NCC1(CC(=O)O)CCCCC1", "MEAS_VALUE": 0.11}
{"COMPOUND": "COc1ccc2c(c1)c(CC(=O)O)c(C)n2C(=O)c1ccc(Cl)cc1", "MEAS_VALUE": 0.88}
{"COMPOUND": "O=C(c1ccc(F)cc1)C1CCN(CCn2c(=S)[nH]c3ccccc3c2=O)CC1", "MEAS_VALUE": 1.48}

* * *

Test system: P-gp (human MDR1)
ASSAY_OVERVIEW: in vitro
CONDITIONS: dog, MDCK-MDR1, pH 7.4
Classes (Papp B→A at 60 min, 0.5 μM): low end: < 3 ×10⁻⁶ cm/s; middle: ≥ 3 ×10⁻⁶ cm/s and < 8 ×10⁻⁶ cm/s; high end: ≥ 8 ×10⁻⁶ cm/s

{"COMPOUND": "CN(C)CCCC1(c2ccc(F)cc2)OCc2cc(C#N)ccc21 (centres unmarked)", "CLASS": "middle"}
{"COMPOUND": "CC(C)NCC(O)COc1cccc2ccccc12 (centres unmarked)", "CLASS": "middle"}
{"COMPOUND": "COc1ccc2c(c1)c(CC(=O)O)c(C)n2C(=O)c1ccc(Cl)cc1", "CLASS": "low end"}
{"COMPOUND": "NCC1(CC(=O)O)CCCCC1", "CLASS": "low end"}
{"COMPOUND": "Clc1ccc2c(c1)N=C(N1CCNCC1)c1ccccc1N2", "CLASS": "middle"}
{"COMPOUND": "CCN(CC)CCNC(=O)c1cc(Cl)c(N)cc1OC [Metoclopramide, metoclopramide]", "CLASS": "high end"}
{"COMPOUND": "CN(C)CCC=C1c2ccccc2COc2ccccc21 [Doxepin, doxepin]", "CLASS": "low end"}
{"COMPOUND": "CN/C(=N/CCSCc1nc[nH]c1C)NC#N", "CLASS": "low end"}
{"COMPOUND": "Cc1cc(=O)n(-c2ccccc2)n1C [Antipyrine, antipyrine]", "CLASS": "high end"}
{"COMPOUND": "O=C(c1ccc(F)cc1)C1CCN(CCn2c(=S)[nH]c3ccccc3c2=O)CC1", "CLASS": "middle"}
{"COMPOUND": "O=C1CC2(CCCC2)CC(=O)N1CCCCN1CCN(c2ncccn2)CC1", "CLASS": "high end"}
